Molecular target: T1, TAMRA-labeled effector peptide cs221B (5(6)-TAMRA label coupled on resin after synthesis)
T1 construct: also called TAMRA-cs221B
T1 peptide: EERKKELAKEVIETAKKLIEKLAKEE
Experiment: fluorescence polarization titration; TAMRA-peptide constant, hinge varied
MEASURED_METRIC: pKd
Numbers only, as −log10 of the molar value.

Quick request: pKd for each listed item, please.
1. variant cs221_lockedY (designed binder, disulfide bond between the two introduced cysteines (locks the hinge in state Y; oxidized with copper phenanthroline), also called cs221 locked Y hinge variant) MSGEMKEEIRRLAEELRERTKDEEVRELAREAARLAEESDDEEVKEVVKKALEAALKSKDEEVIRLLLCAAVLAAAAARSGSPEEKLEIAKKALELAMKSKDEEVIRLACLAAVLAARSDDEEVLKKVKEALEKAMESKDVEEIRERLREAVEVARAGSGSHHWGSTHHHHHH
2. cs221_L66T (designed binder, Point mutant of hinge cs221) MSGEMKEEIRRLAEELRERTKDEEVRELAREAARLAEESDDEEVKEVVKKALEAALKSKDEEVIRLLLTAAVLAAAAARSGSPEEKLEIAKKALELAMKSKDEEVIRLALLAAVLAARSDDEEVLKKVKEALEKAMESKDVEEIRERLREAVEVARAGSGSHHWGSTHHHHHH

Reply:
1: 7.92; 2: 7.42

Input hinge cs221 (designed binder, also called original cs221; parent hinge without cysteines) MSGEMKEEIRRLAEELRERTKDEEVRELAREAARLAEESDDEEVKEVVKKALEAALKSKDEEVIRLLLLAAVLAAAAARSGSPEEKLEIAKKALELAMKSKDEEVIRLALLAAVLAARSDDEEVLKKVKEALEKAMESKDVEEIRERLREAVEVARAGSGSHHWGSTHHHHHH . Output pKd: 8.70
